Test system: NCI-H2023
Assay: relative viability (nuclei count vs DMSO), 5 days (fraction); higher = more cells survive
Conditions: first compound 0.1581 µM
Measured relative viability values are reported for all entries that follow.
Would you mind answering with just the numeric figure?

Completed entries (count: 5):
Nc1ccn([C@@H]2O[C@H](CO)[C@@H](O)[C@@H]2O)c(=O)n1 [Cytarabine] + O=C(CCCCCCC(=O)Nc1ccccc1)NO [Vorinostat] (partner 1 µM)    0.101
COc1cc2nccc(Oc3ccc(NC(=O)Nc4cc(C)on4)c(Cl)c3)c2cc1OC [Tivozanib] + C[C@]1(O)C[C@@H](c2nc(-c3ccc4ccc(-c5ccccc5)nc4c3)c3c(N)nccn32)C1 [Linsitinib] (partner 1 µM)    0.671
Nc1ccn([C@@H]2O[C@H](CO)[C@@H](O)[C@@H]2O)c(=O)n1 [Cytarabine] + CC(=O)Nc1cccc(-n2c(=O)n(C3CC3)c(=O)c3c(Nc4ccc(I)cc4F)n(C)c(=O)c(C)c32)c1 [Trametinib] (partner 0.02 µM)    0.104
COc1cc2nccc(Oc3ccc(NC(=O)Nc4cc(C)on4)c(Cl)c3)c2cc1OC [Tivozanib] + CCNC(=O)c1noc(-c2cc(C(C)C)c(O)cc2O)c1-c1ccc(CN2CCOCC2)cc1 [Luminespib] (partner 0.01 µM)    0.748
COc1cc2nccc(Oc3ccc(NC(=O)Nc4cc(C)on4)c(Cl)c3)c2cc1OC [Tivozanib] + CC(C)C[C@H](NC(=O)[C@H](Cc1ccccc1)NC(=O)c1cnccn1)B(O)O [Bortezomib] (partner 0.002 µM)    0.853

// compound Nc1ccn([C@@H]2O[C@H](CO)[C@@H](O)[C@@H]2O)c(=O)n1 [Cytarabine] + CC(=O)c1c(C)c2cnc(Nc3ccc(N4CCNCC4)cn3)nc2n(C2CCCC2)c1=O [Palbociclib] (partner 0.5 µM) , assay NCI-H2023, relative viability value: 0.0971

Sample COc1cc2nccc(Oc3ccc(NC(=O)Nc4cc(C)on4)c(Cl)c3)c2cc1OC [Tivozanib] + Cc1nc(NC(=O)N2CCC[C@H]2C(N)=O)sc1-c1ccnc(C(C)(C)C(F)(F)F)c1 [Alpelisib] (partner 2 µM) , system: NCI-H2023. Its relative viability is 0.589

Reported NCI-H2023 relative viability for item COc1cc2nccc(Oc3ccc(NC(=O)Nc4cc(C)on4)c(Cl)c3)c2cc1OC [Tivozanib] + CS(=O)(=O)CCNCc1ccc(-c2ccc3ncnc(Nc4ccc(OCc5cccc(F)c5)c(Cl)c4)c3c2)o1 [Lapatinib] (partner 2 µM) was 0.634

For COc1cc2nccc(Oc3ccc(NC(=O)Nc4cc(C)on4)c(Cl)c3)c2cc1OC [Tivozanib] + CC1(C)CCC(c2ccc(Cl)cc2)=C(CN2CCN(c3ccc(C(=O)NS(=O)(=O)c4ccc(N[C@H](CCN5CCOCC5)CSc5ccccc5)c(S(=O)(=O)C(F)(F)F)c4)cc3)CC2)C1 [Navitoclax] (partner 0.5 µM) on NCI-H2023, measured relative viability was 0.962

Log: NCI-H2023, compound COc1cc2nccc(Oc3ccc(NC(=O)Nc4cc(C)on4)c(Cl)c3)c2cc1OC [Tivozanib] + O=C(c1cc(Cc2n[nH]c(=O)c3ccccc23)ccc1F)N1CCN(C(=O)C2CC2)CC1 [Olaparib] (partner 8 µM) , relative viability = 0.481

// assay NCI-H2023, entry Nc1ccn([C@@H]2O[C@H](CO)[C@@H](O)[C@@H]2O)c(=O)n1 [Cytarabine] + CS(=O)(=O)CCNCc1ccc(-c2ccc3ncnc(Nc4ccc(OCc5cccc(F)c5)c(Cl)c4)c3c2)o1 [Lapatinib] (partner 2 µM) , relative viability value = 0.0848

Entry Nc1ccn([C@@H]2O[C@H](CO)[C@@H](O)[C@@H]2O)c(=O)n1 [Cytarabine] + CS(=O)(=O)N1CCN(Cc2cc3nc(-c4cccc5[nH]ncc45)nc(N4CCOCC4)c3s2)CC1 [Pictilisib] (partner 1 µM) : relative viability on NCI-H2023 = 0.0708

relative viability on NCI-H2023 for COc1cc2nccc(Oc3ccc(NC(=O)Nc4cc(C)on4)c(Cl)c3)c2cc1OC [Tivozanib] + O=C(CCCCCCC(=O)Nc1ccccc1)NO [Vorinostat] (partner 1 µM) is 0.48
